Biological target: P450BM-3 (Priestia megaterium)
Assay: biochemical
Assay type: binding
Conditions: read-out: Kd (spectral titration); 50 mM potassium MOPS pH 7.4, 23 °C
pKd: −log10 of the molar value. Where a name gives a salt, the structure may show the parent alone.
value type: pKd

>>> observed_result("CCCCCCCCCCCC(=O)O")
4.54
>>> observed_result("CCCCCCCCCCCCOS(=O)(=O)O [dodecyl sulfate]")
4.85
>>> observed_result("CC(O)CCCCCCCCCC(=O)O (stereo not drawn)")
5.10

====

Molecular target: P450BM-3 (Priestia megaterium, UniProt P14779)
Assay type: binding, Bacillus megaterium
Conditions: read-out: Kd estimate (Kd = koff/kon); from fitted on- and off-rate constants
value type: Kd (µM)

>>> observed_result("CC(O)CCCCCCCCCC(=O)O (stereo not shown) [11-OH lauric acid]")
11

====

Recorded Kd values for a group of compounds are listed next.
Target: P450BM-3 (Priestia megaterium)
Sequence (P14779 1-1049): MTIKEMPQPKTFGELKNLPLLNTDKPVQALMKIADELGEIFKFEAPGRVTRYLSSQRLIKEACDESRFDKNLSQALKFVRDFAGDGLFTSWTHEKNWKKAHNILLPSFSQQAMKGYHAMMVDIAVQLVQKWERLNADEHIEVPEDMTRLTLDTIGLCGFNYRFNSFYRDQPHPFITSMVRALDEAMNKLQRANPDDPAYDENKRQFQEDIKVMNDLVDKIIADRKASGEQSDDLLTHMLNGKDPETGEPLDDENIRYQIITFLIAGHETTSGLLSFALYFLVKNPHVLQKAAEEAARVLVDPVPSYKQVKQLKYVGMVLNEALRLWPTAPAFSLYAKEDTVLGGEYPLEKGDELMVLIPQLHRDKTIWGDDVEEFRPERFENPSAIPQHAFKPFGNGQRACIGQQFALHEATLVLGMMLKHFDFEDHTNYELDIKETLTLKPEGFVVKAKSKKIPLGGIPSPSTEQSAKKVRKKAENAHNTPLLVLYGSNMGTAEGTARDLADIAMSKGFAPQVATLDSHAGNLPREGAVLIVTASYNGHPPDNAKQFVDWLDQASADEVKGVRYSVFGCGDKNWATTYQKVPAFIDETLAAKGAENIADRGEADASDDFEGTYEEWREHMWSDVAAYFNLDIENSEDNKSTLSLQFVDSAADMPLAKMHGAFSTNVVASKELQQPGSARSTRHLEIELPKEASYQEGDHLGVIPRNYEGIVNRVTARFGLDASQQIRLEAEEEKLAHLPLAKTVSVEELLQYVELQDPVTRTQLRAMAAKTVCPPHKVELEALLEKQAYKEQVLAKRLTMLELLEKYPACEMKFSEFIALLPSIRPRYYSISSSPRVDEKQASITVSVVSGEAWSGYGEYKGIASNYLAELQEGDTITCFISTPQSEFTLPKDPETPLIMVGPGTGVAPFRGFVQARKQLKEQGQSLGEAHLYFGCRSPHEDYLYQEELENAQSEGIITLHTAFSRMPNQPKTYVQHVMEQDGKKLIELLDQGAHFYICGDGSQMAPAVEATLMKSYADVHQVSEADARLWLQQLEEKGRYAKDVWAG
Assay: biochemical
Assay type: binding
Counter-ions that a name gives are not always drawn.
value type: Kd (µM)

>>> observed_result("CCCCCCCCCCCCCC(=O)O [myristate]")
12
>>> observed_result("CCCCCCCCCCCCCCOS(=O)(=O)O [tetradecyl sulfate]")
1.4

Attribution: paper PMC8317952
